# System: OVCAR-3 ovarian
# Assay Notes: NCI-60 one-dose screen, 48 h
# Condition Summary: 10 µM unless noted
The panel holds about 83,000 compounds, 20% with a hit somewhere; the sample as a whole holds those more often. Active and inactive are the calls of the source. Rule for the calls: active = growth percent below 10; inactive = the rest.
Please state which outcome applies, choosing from active, inactive

Consider the worked cases shown below.
{"columns": ["Compound", "Subject Of Test", "Classification"],
 "data": [
  ["COc1ccc(/C(C)=C(\\c2ccc(Cl)cc2)c2ccc(OCCN3CCCCC3)cc2)cc1F", "OVCAR-3 ovarian", "inactive"],
  ["Cc1[nH]c(-c2nc3ccccc3[nH]2)c(C)c1C(=O)N1CCc2sccc2C1", "OVCAR-3 ovarian", "inactive"],
  ["Cc1cc2c(F)c(Oc3ncnc(Nc4ccc(N5C[C@@H](C)N[C@@H](C)C5)cc4)c3C#N)cc(F)c2[nH]1", "OVCAR-3 ovarian", "active"],
  ["CN1CCN(C(=O)[C@]23CCC(C)(C)C[C@@H]2C2=CC[C@@H]4[C@@]5(C)Cc6c([nH]c7ccccc67)C(C)(C)[C@@H]5CC[C@@]4(C)[C@]2(C)CC3)CC1", "OVCAR-3 ovarian", "inactive"]
]}

## Input Entry "N#C/C=C(\c1ccc([N+](=O)[O-])cc1)n1nnc2cc(Cl)c(Cl)cc21" : call = ?
## Output active

## Input Tell me the assay call for COc1ccc(C2CC(c3ccc4ccccc4c3)=NN2c2nc(O)c(C3=c4cc(Cl)ccc4=NC3=O)s2)cc1 (configuration not stated) please.
## Output active

## Input Lab log entry: "COc1ccc(O)c(-c2cc(-c3ccccc3)c(C#N)c(=O)[nH]2)c1" — outcome as called in the assay?
## Output inactive

## Input Can you look up the reported call for CSc1nc(N)c(CNC(C)c2ccccc2)c(=O)n1C (configuration not stated) for me?
## Output inactive

## Input Field: outcome | Entry: "CCN(CC)S(=O)(=O)c1ccc(O)c(NC(=O)c2[nH]c(C)c(C(C)=O)c2CCc2ccc(Cl)cc2)c1"
## Output inactive

## Input Assay outcome for "C=C(C=O)[C@@H]1CC=C(C=O)CC1" : what was it?
## Output active

## Input Entry "COc1ccc(/C(C)=C(\c2ccc(Cl)cc2)c2ccc(OCCN3CCCC3)cc2)cc1F" : call = ?
## Output inactive

## Input How was "O=[N+]([O-])c1ccc(-c2cc3c(Nc4ccc(Cl)c(C(F)(F)F)c4)ncnc3s2)cc1" classified in this test?
## Output active

====

# System: SNB-75 CNS
# Assay Notes: NCI-60 one-dose screen, 48 h (100 = growth as untreated, 0 = no growth, -100 = all killed)
# Condition Summary: 10 µM unless noted
The panel holds about 83,000 compounds, 20% with a hit somewhere; the sample as a whole holds those more often.
growth values, listed per item
Write the value in % as a bare number.

# count of solved cases: 5
{"columns": ["Compound", "Subject Of Test", "Numeric Value"],
 "data": [
  ["C[C@]12CCC(=O)C[C@H]1CC[C@@H]1[C@@H]2CC[C@@]2(C)[C@H]1CC[C@]2(O)C(=O)CO", "SNB-75 CNS", 94.4],
  ["CCOC(=O)c1ccc(-c2ccc3cc(OC)ccc3c2)nc1C", "SNB-75 CNS", 110],
  ["CC(=O)Nc1ccc(-c2cc3c(NCc4ccc(F)cc4)ncnc3s2)cc1", "SNB-75 CNS", 70.1],
  ["CC(=O)c1cc2c(o1)C(=O)c1ccccc1C2=O", "SNB-75 CNS", -98.5],
  ["Cc1[nH]c(-c2nc3ccccc3[nH]2)c(C)c1C(=O)N1CCc2sccc2C1", "SNB-75 CNS", 78.6]
]}

## Input Give growth for the following compound: "O=C(CCl)N1c2cccc3cccc(c23)N(C(=O)CCl)C1c1cn(-c2ccccc2)nc1-c1cccc([N+](=O)[O-])c1"
## Output 85.1

## Input Determine from records and report growth for "C=C(C)[C@@H]1CC[C@]2(CO)CC[C@]3(C)[C@H](CC[C@@H]4[C@@]5(C)C=C(C#N)C(=O)C(C)(C)[C@@H]5CC[C@]43C)[C@@H]12"
## Output 52.1

## Input Entry "CCOC(=O)c1sc2ccc(NCc3nc[nH]c3C)cc2c1NC(=O)c1cc(OC)c(OC)c(OC)c1" needs its growth filled in; supply it.
## Output 92.8

## Input Indicate its recorded growth; the compound in question is "N#C/C=C(\c1ccc([N+](=O)[O-])cc1)n1nnc2cc(Cl)c(Cl)cc21"
## Output 18.1

====

# System: NCI-H522 lung
# Assay Notes: NCI-60 one-dose screen, 48 h
# Condition Summary: 10 µM unless noted
This is part of a sample that, as a whole, favours compounds with a hit. Of some 83,000 tested, about 20% had one in any assay. Active and inactive are the calls of the source. Rule for the calls: active = growth percent below 10; inactive = the rest.
Can you answer with just one of these options? 1 (yes) for active, 0 (no) for inactive

Please review the following examples before continuing.
{"columns": ["Molecule", "Classification"],
 "data": [
  ["O=C(CC12CC3CC(CC(C3)C1)C2)NCCOCCOCCOCCNC(=O)c1cc2c(o1)C(=O)c1ccccc1C2=O", "1 (yes)"],
  ["O=C1/C(=C/c2ccc([N+](=O)[O-])cc2)COc2ccc(O)c(O)c21", "1 (yes)"],
  ["Cc1cc(Cc2cc(C)cc(C(C)(C)C)c2O)c(O)c(C(C)(C)C)c1", "0 (no)"],
  ["CCCCCCCCc1cc[n+](CC(=O)c2ccc(Br)cc2)cc1", "1 (yes)"],
  ["O=C1Nc2ccccc2/C1=N/N=C/c1c[nH]c2ccccc12", "0 (no)"],
  ["N=C(N)c1ccc(-c2ccc(-c3ccc(Cl)c(Cl)c3)o2)nc1", "0 (no)"],
  ["COc1ccc(-n2nnc(C(=O)NCCc3c[nH]c4ccc(F)cc34)c2C)cc1", "0 (no)"],
  ["C=C(Cl)COC(=O)C(C)(C)O", "0 (no)"]
]}

## Input Field: outcome | Entry: "COc1ccc(/C=C(\C#N)n2nnc3cc(F)c(F)cc32)c(OC)c1OC"
## Output 0 (no)

## Input What did the test return for O=C(NCOC(O)C(Cl)(Cl)Cl)NCOC(O)C(Cl)(Cl)Cl (stereo not given) ?
## Output 0 (no)

## Input Kindly provide the recorded test outcome for the following molecule: CCC(O)(C(c1ccccc1)c1ccccn1)C(c1ccccc1)c1ccccn1 (stereo not given)
## Output 0 (no)

## Input # lookup: test call for "N#Cc1cnn2c(-c3ccc(Cl)cc3)nc(NCCc3ccccc3)nc12"
## Output 0 (no)

## Input Hi team, can someone confirm the assay call for "CN1CCN(C(=O)[C@]23CCC(C)(C)C[C@@H]2C2=CC[C@@H]4[C@@]5(C)Cc6c([nH]c7ccccc67)C(C)(C)[C@@H]5CC[C@@]4(C)[C@]2(C)CC3)CC1" ?
## Output 0 (no)

## Input Give the logged outcome of this assay for the following molecule: "COc1ccc(/C(C)=C(\c2ccc(Cl)cc2)c2ccc(OCCN3CCCC3)cc2)cc1F"
## Output 0 (no)

## Input For CC12CC(C#N)CCC1O2 (stereo not given) , what call appears in the results of this test?
## Output 0 (no)

## Input Which outcome was assigned to "CCn1c(Sc2nnc(NC(=O)CSC(=S)N3CCCCC3)s2)nc2c1c(=O)n(C)c(=O)n2C" in this test?
## Output 0 (no)

## Input Recorded test outcome, item "O=C1c2ccccc2C(=O)c2cc(Cn3cc[n+](Cc4ccc5ccccc5c4)c3)ccc21"
## Output 0 (no)

## Input Which outcome was entered for the molecule "COc1cc(/C=C2\C=C(c3ccccc3)N(CCc3ccccc3)C2=O)cc(OC)c1OC" in this test?
## Output 0 (no)

## Input Any idea what this test logged for C=C1c2c(C)nn(-c3ccc(O)cc3)c2N(C)C23C[C@@H]1C1(C)c4c(C)nn(-c5ccc(O)cc5)c4N(C)C(C)(C[C@H]12)C3 (stereo not given in full) ?
## Output 0 (no)

## Input Query: recorded result category for COc1ccc(C2CC(c3cnccn3)=NN2)cc1OC (stereo not given) in this test
## Output 0 (no)

====

# Test system: SNB-19 CNS
# Assay Notes: NCI-60 one-dose screen, 48 h
# Condition Summary: 10 µM unless noted
About 83,000 compounds went through this panel and 20% of them were active in at least one assay; those are over-represented in the sample as a whole. Active and inactive are the calls of the source. The calls were made as follows: active = growth percent below 10; inactive = the rest.
Use one of these outcomes when replying: 1 (yes) (active), 0 (no) (inactive)

{"columns": ["Compound", "Classification"],
 "data": [
  ["Clc1ccc2c(NCCCN3CCN(c4nc(N5CCOCC5)nc5ccccc45)CC3)ccnc2c1", "0 (no)"]
]}

## Input Called result for COC1(CC[C@@H](C)COC2OC(CO)C(O)C(O)C2O)O[C@H]2C[C@H]3[C@@H]4CC=C5C[C@@H](OC6OC(CO)C(OC7OC(C)C(O)C(O)C7O)C(O)C6OC6OC(C)C(O)C(O)C6O)CC[C@]5(C)[C@H]4CC[C@]3(C)[C@H]2[C@@H]1C (stereo partly drawn)
## Output 1 (yes)

## Input What outcome does the record of this test show for "O=C(Nc1ccccc1)c1sc(-c2cccc(C(F)(F)F)c2)cc1O" ?
## Output 0 (no)

## Input Could you please tell me the result logged for "Cc1c2c(cn1Cc1ccccc1)CCc1cn(C)nc1-2" in this assay?
## Output 0 (no)

## Input Hi, sorry to bother you, what did the test record for "Cc1ccc(S(=O)(=O)Nc2sccc2-c2nc(-c3ccccc3)no2)cc1" ?
## Output 0 (no)

## Input Query: recorded result category for "COC(=O)/C(=C\c1ccc(OC)cc1)C(=O)N1c2ccccc2Sc2ccccc21" in this test
## Output 0 (no)

## Input Test call for this compound, please: "C[C@H]1[C@H]2C3=CC[C@@H]4[C@@]5(C)C/C(=C/c6ccncc6)C(=O)C(C)(C)[C@@H]5CC[C@@]4(C)[C@]3(C)CC[C@@]2(C(=O)N2CCN(C)CC2)CC[C@@H]1C"
## Output 0 (no)

## Input Short answer needed: outcome of this test for "COc1ccccc1NC(=O)Nc1ccc(-c2nc3ccccc3o2)cc1" ?
## Output 0 (no)
